- ASSAY_SYSTEM: ML1b receptor (Homo sapiens, UniProt P49286)
- Construct: expressed in transfected cells
- TEST: Melatonergic receptor binding activity, 2-[125I]-iodomelatonin, ML1b
- PROTOCOL_CONDITIONS: Table IV; 37° C. for 1 hour

| COMPOUND | IC50 |
| --- | --- |
| CC(=O)NC[C@H]1C[C@@H]1c1cccc2oc(CCCCc3ccccc3)cc12 (racemic) [Example 28] | 0.01 to 0.25 µM |
| CCNC(=O)NC[C@H]1C[C@@H]1c1cccc2oc(CCCCc3ccc(F)cc3)cc12 | > 0.25 µM |
| CCCC(=O)NC[C@@H]1C[C@H]1c1cccc2oc(CCCCc3ccc(F)cc3)cc12 (stereo in doubt) | 0.01 to 0.25 µM |
| CCC(=O)NC[C@@H]1C[C@H]1c1cccc2oc(CCCCc3ccc(F)cc3)cc12 (stereo in doubt) | 0.01 to 0.25 µM |

---

Each item that follows carries a reported IC50.
- ASSAY_SYSTEM: ML1a receptor (Homo sapiens)
- Construct: expressed in transfected cells; pcDNA3)
- TEST: Melatonergic receptor binding activity, 2-[125I]-iodomelatonin, ML1a
- PROTOCOL_CONDITIONS: Table IV; membrane homogenates of NIH-3T3 cells, 37° C. for 1 hour

| COMPOUND | IC50 |
| --- | --- |
| CC(=O)NC[C@@H]1C[C@H]1c1cccc2oc(CCCCc3ccc(F)cc3)cc12 (stereo in doubt) | < 10 nM |
| CC(C)C(=O)NC[C@H]1C[C@@H]1c1cccc2oc(CCCCc3ccccc3)cc12 (racemic) | 10 to 250 nM |
| CCCC(=O)NC[C@H]1C[C@@H]1c1cccc2oc(CCCCc3ccccc3)cc12 (racemic) | 10 to 250 nM |
| CCCC(=O)NC[C@@H]1C[C@H]1c1cccc2oc(CCCCc3ccc(F)cc3)cc12 (stereo in doubt) | 10 to 250 nM |
| CCC(=O)NC[C@H]1C[C@@H]1c1cccc2oc(CCCCc3ccccc3)cc12 (racemic) | < 10 nM |
| CCNC(=O)NC[C@@H]1C[C@H]1c1cccc2oc(CCCCc3ccccc3)cc12 (stereo in doubt) | 10 to 250 nM |
| CCC(=O)NC[C@@H]1C[C@H]1c1cccc2oc(CCCCc3ccc(F)cc3)cc12 (stereo in doubt) | < 10 nM |
| CC(=O)NC[C@H]1C[C@@H]1c1cccc2oc(CCCCc3ccccc3)cc12 (single isomer, unassigned) [Example 29] | < 10 nM |
| O=C(NC[C@@H]1C[C@H]1c1cccc2oc(CCCCc3ccc(F)cc3)cc12)C1CC1 (stereo in doubt) | 10 to 250 nM |
| CCNC(=O)NC[C@H]1C[C@@H]1c1cccc2oc(CCCCc3ccc(F)cc3)cc12 | 10 to 250 nM |
| CC(=O)NC[C@H]1C[C@@H]1c1cccc2oc(CCCCc3ccccc3)cc12 (single isomer, unassigned) [Example 30] | 10 to 250 nM |
| CC(=O)NC[C@H]1C[C@@H]1c1cccc2oc(CCCCc3ccccc3)cc12 (racemic) [Example 28] | < 10 nM |
| O=C(NC[C@H]1C[C@@H]1c1cccc2oc(CCCCc3ccccc3)cc12)C1CC1 (racemic) | 10 to 250 nM |
| CC(C)C(=O)NC[C@@H]1C[C@H]1c1cccc2oc(CCCCc3ccc(F)cc3)cc12 (stereo in doubt) | 10 to 250 nM |

---

- ASSAY_SYSTEM: ML1b receptor (Homo sapiens)
- Construct: expressed in transfected cells
- Sequence (P49286 1-362): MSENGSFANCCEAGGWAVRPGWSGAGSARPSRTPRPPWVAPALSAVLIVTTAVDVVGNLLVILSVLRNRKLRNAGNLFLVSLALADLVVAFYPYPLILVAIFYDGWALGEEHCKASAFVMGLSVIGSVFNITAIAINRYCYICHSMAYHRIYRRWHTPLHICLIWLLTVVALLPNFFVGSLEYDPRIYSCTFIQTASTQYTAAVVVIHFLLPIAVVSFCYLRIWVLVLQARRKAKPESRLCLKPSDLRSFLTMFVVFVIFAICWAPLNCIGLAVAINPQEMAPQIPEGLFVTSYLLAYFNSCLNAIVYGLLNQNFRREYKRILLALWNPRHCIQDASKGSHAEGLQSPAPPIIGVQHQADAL
- TEST: Melatonergic receptor binding activity, 2-[125I]-iodomelatonin, ML1b
- PROTOCOL_CONDITIONS: Table III; 37° C. for 1 hour
As shown below, each of these compounds has a reported IC50 value.

| COMPOUND | IC50 |
| --- | --- |
| CCNC(=O)NCCCc1cccc2oc(CCCCc3ccc(C(F)(F)F)cc3)cc12 | > 0.25 µM |
| CC(=O)NCCCc1cccc2oc(CCCCc3ccc(C(F)(F)F)cc3)cc12 | > 0.25 µM |
| O=C(NCCCc1cccc2oc(CCCCc3ccc(C(F)(F)F)cc3)cc12)C1CC1 | > 0.25 µM |
| CCCC(=O)NCCCc1cccc2oc(CCCCc3ccc(C(F)(F)F)cc3)cc12 | 0.01 to 0.25 µM |
| CCC(=O)NCCCc1cccc2oc(CCCCc3ccc(C(F)(F)F)cc3)cc12 | 0.01 to 0.25 µM |
| CC(C)C(=O)NCCCc1cccc2oc(CCCCc3ccc(C(F)(F)F)cc3)cc12 | > 0.25 µM |

---

- ASSAY_SYSTEM: ML1a receptor (Homo sapiens, UniProt P48039)
- Construct: expressed in transfected cells; pcDNA3)
- Sequence (P48039 whole entry): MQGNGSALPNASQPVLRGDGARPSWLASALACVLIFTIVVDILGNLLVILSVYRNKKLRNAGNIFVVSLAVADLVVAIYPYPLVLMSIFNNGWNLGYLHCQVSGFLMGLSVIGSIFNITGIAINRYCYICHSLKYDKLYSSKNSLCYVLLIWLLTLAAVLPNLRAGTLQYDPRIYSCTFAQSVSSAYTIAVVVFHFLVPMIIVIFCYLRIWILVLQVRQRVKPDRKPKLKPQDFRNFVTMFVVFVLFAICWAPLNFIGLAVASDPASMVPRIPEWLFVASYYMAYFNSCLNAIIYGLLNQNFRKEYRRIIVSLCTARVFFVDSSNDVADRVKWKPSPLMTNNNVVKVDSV
- TEST: Melatonergic receptor binding activity, 2-[125I]-iodomelatonin, ML1a
- PROTOCOL_CONDITIONS: Table III; membrane homogenates of NIH-3T3 cells, 37° C. for 1 hour
pIC50: −log10 of the molar value.
MEASURED_PARAMETER: pIC50

| COMPOUND | VALUE |
| --- | --- |
| CCNC(=O)NCCCc1cccc2oc(CCCCc3ccc(C(F)(F)F)cc3)cc12 [Example 14] | 6.60 to 8.00 |
| CC(=O)NCCCc1cccc2oc(CCCCc3ccc(C(F)(F)F)cc3)cc12 [Example 15] | 6.60 to 8.00 |
| CCC(=O)NCCCc1cccc2oc(CCCCc3ccc(C(F)(F)F)cc3)cc12 [Example 16] | 6.60 to 8.00 |
| O=C(NCCCc1cccc2oc(CCCCc3ccc(C(F)(F)F)cc3)cc12)C1CC1 [Example 13] | < 6.60 |
| CC(C)C(=O)NCCCc1cccc2oc(CCCCc3ccc(C(F)(F)F)cc3)cc12 [Example 18] | 6.60 to 8.00 |
| CCCC(=O)NCCCc1cccc2oc(CCCCc3ccc(C(F)(F)F)cc3)cc12 [Example 17] | 6.60 to 8.00 |

---

- ASSAY_SYSTEM: ML1a receptor (Homo sapiens)
- Construct: expressed in transfected cells; pcDNA3)
- TEST: Melatonergic receptor binding activity, 2-[125I]-iodomelatonin, ML1a
- PROTOCOL_CONDITIONS: Table II; membrane homogenates of NIH-3T3 cells, 37° C. for 1 hour
Items are presented alongside their recorded IC50.

| MOLECULE | IC50 |
| --- | --- |
| O=C(NCCCc1cccc2oc(CCCCc3ccccc3)cc12)C1CC1 [Example 7] | 10 to 250 nM |
| CC(=O)NCCCc1cccc2oc(CCCCc3ccccc3)cc12 [Example 9] | 10 to 250 nM |
| CCC(=O)NCCCc1cccc2oc(CCCCc3ccccc3)cc12 [Example 10] | < 10 nM |
| CC(C)C(=O)NCCCc1cccc2oc(CCCCc3ccccc3)cc12 [Example 12] | < 10 nM |
| CCCC(=O)NCCCc1cccc2oc(CCCCc3ccccc3)cc12 [Example 11] | 10 to 250 nM |

---

- ASSAY_SYSTEM: ML1b receptor (Homo sapiens)
- Construct: expressed in transfected cells
- TEST: Melatonergic receptor binding activity, 2-[125I]-iodomelatonin, ML1b
- PROTOCOL_CONDITIONS: Table V; 37° C. for 1 hour
- Method: Melatonergic Receptor Binding Activity (a) TME=50 mM Tris buffer containing 12.5 mM MgCl2, and 2 mM EDTA, pH 7.4 at 37° C., with concentrated HCl. (b) Wash buffer: 20 mM Tris base containing 2 mM MgCl2, pH 7.4 at room temperature. […] The compounds of the present invention have affinity for receptors of the endogenous pineal hormone, melatonin, as determined in a receptor binding assays described above in Tables I to V for the ML1a and ML1b (human) receptors. […]
pIC50: −log10 of the molar value.
MEASURED_PARAMETER: pIC50

| MOLECULE | VALUE |
| --- | --- |
| O=C(NC[C@@H]1C[C@H]1c1cccc2c1C[C@@H](CCCCc1ccccc1)O2)C1CC1 [Example 46] | 6.60 to 8.00 |
| CCNC(=O)NC[C@@H]1C[C@H]1c1cccc2c1C[C@@H](CCCCc1ccccc1)O2 [Example 47] | 6.60 to 8.00 |
| CC(=O)NC[C@@H]1C[C@H]1c1cccc2c1C[C@@H](CCCCc1ccccc1)O2 [Example 42] | > 8.00 |
| CCNC(=O)NCC1CC1c1c(Cl)ccc2c1CC(CCCCc1ccccc1)O2 (stereo not shown) [Example 48] | 6.60 to 8.00 |
| CCCC(=O)NC[C@@H]1C[C@H]1c1cccc2c1C[C@@H](CCCCc1ccccc1)O2 [Example 44] | > 8.00 |
| CC(C)C(=O)NC[C@@H]1C[C@H]1c1cccc2c1C[C@@H](CCCCc1ccccc1)O2 [Example 45] | 6.60 to 8.00 |
| CCC(=O)NC[C@@H]1C[C@H]1c1cccc2c1C[C@@H](CCCCc1ccccc1)O2 [Example 43] | > 8.00 |
